Molecular target: Luciferin 4-monooxygenase (Photinus pyralis) (UniProt P08659)
Sequence (P08659 whole entry, looked up): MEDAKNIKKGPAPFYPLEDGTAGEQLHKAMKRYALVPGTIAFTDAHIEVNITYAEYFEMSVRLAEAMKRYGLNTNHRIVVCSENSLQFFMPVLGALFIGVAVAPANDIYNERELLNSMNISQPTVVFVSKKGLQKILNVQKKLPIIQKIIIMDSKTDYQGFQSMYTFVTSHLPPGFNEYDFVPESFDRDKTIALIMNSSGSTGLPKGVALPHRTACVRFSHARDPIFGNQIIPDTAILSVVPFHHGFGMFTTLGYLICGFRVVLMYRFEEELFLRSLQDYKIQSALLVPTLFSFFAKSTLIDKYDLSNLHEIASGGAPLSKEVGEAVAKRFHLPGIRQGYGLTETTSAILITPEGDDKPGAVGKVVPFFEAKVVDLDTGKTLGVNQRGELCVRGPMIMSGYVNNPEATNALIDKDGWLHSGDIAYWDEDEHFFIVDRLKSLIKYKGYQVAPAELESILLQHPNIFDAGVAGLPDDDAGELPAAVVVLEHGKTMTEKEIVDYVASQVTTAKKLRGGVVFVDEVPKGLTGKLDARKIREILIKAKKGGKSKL
Test: qHTS profiling assay for firefly luciferase inhibitor/activator using purifed enzyme and Km concentrations of substrates (counterscreen for miR-21 project); note: nearly all actives have a fitted effect of over 55% in size
Conditions: purified FLuc, luminescence inhibition; series mostly up to 57.5 µM
From the text: MLPCN Grant: 1 R21 NS059478-01 (miR-21 grant) Assay Provider: NCGC NCGC Assay Overview: Firefly (Photinus pyralis) luciferase is one of the most commonly used transcriptional reporters for a number of reasons. […] Although light produced in a bioluminescence reaction is of lower intensity than that produced during fluorescence emission, this is offset by little to no background light inherent to luminescent assays. […]
Hit rate of the full screen: of about 360,000 compounds, about 25,000 (6.9%) were called active. Another 9% or so got no clear call; they are omitted. Only a selection was taken, and actives are over-represented in it overall.
PARAMETER: outcome

Answered examples (4):
SMILES REPRESENTATION	REPORTED
COc1ccc(OC)c(NC(=O)c2cnn(-c3ccccc3Cl)c2NC(=O)c2ccco2)c1	inactive
CCn1cc(C(=O)NCCc2ccccc2)c(=O)c2cc(S(=O)(=O)N3CCCCCC3)ccc21	inactive
CCCN(C(=O)Cn1ncc2c([nH]c3ccc(C)cc32)c1=O)c1ccccc1C	inactive
O=C(Nc1cccc(Cl)c1)c1csnn1	inactive

Provide one value: measured outcome of CC1(C)CC(=O)C=C(c2cccc3c2Oc2ccccc2S3)C1
inactive

====

target: Luciferin 4-monooxygenase (Photinus pyralis) (UniProt P08659); assay: qHTS profiling assay for firefly luciferase inhibitor/activator using purifed enzyme and Km concentrations of substrates (counterscreen for miR-21 project); details: purified FLuc, luminescence inhibition; series mostly up to 57.5 µM; note: nearly all actives have a fitted effect of over 55% in size; note: potency is the fitted concentration of half-maximal effect
Hit rate of the full screen: of about 360,000 compounds, about 25,000 (6.9%) were called active. Not shown: some 9% with an inconclusive outcome. The full list was thinned out, with actives kept by preference.
PARAMETER: Potency

Some compounds with recorded Potency:
COMPOUND	TEST SYSTEM	REPORTED
Cc1cccc(NC(=O)C2CCCN2S(=O)(=O)c2cccc3nsnc23)c1C (configuration not stated)	Luciferin 4-monooxygenase (Photinus pyralis) (UniProt P08659)	inactive
Cc1ccc(NC(=O)CN(C)C(=O)c2cccc(S(=O)(=O)N3CCCC3)c2)cc1	Luciferin 4-monooxygenase (Photinus pyralis) (UniProt P08659)	inactive
CC(C)c1ccc(/C=C/C(=O)NCCCN2CCOCC2)cc1	Luciferin 4-monooxygenase (Photinus pyralis) (UniProt P08659)	21.3 µM (active)
Cc1ccn2c(=O)c(C(=O)NCCC3=CCCCC3)c(O)nc2c1	Luciferin 4-monooxygenase (Photinus pyralis) (UniProt P08659)	inactive
O=C(CCc1ccccc1)NCc1ccc2c(c1)CCN2C(=O)c1ccccc1	Luciferin 4-monooxygenase (Photinus pyralis) (UniProt P08659)	inactive
C=CCNC(=O)/C=C/c1ccc(C(C)C)cc1	Luciferin 4-monooxygenase (Photinus pyralis) (UniProt P08659)	19 µM (active)

Please report Potency with Luciferin 4-monooxygenase (Photinus pyralis) (UniProt P08659) for item N#Cc1cccc(OC(=O)c2ccc3c(=O)n4c(nc3c2)CCC4)c1 .
inactive

Param request: Potency | system Luciferin 4-monooxygenase (Photinus pyralis) (UniProt P08659) | item CCOC(=O)c1cc(NC(=O)c2ccc(F)cc2)c(=O)n2c1oc1ccccc12
inactive

For Luciferin 4-monooxygenase (Photinus pyralis) (UniProt P08659), give the measured Potency of the entry O=C(/C=C/c1cn(-c2ccccc2)nc1-c1ccc2c(c1)OCCO2)NCCCN1CCOCC1
inactive

Output reported Potency of the compound COc1cccc(C(=O)NNC(=O)/C=C/c2ccccc2)c1 on Luciferin 4-monooxygenase (Photinus pyralis) (UniProt P08659).
inactive

Specify Potency for O=C(COc1cccc(-n2cnnn2)c1)NCCC1=CCCCC1 , system Luciferin 4-monooxygenase (Photinus pyralis) (UniProt P08659).
inactive

Recall the reported Potency of Cc1cc(C)cc(NS(=O)(=O)c2ccc(-c3cc(C)no3)s2)c1 on Luciferin 4-monooxygenase (Photinus pyralis) (UniProt P08659) and write it down.
inactive

Param request: Potency | system Luciferin 4-monooxygenase (Photinus pyralis) (UniProt P08659) | item Cc1ccc(Cl)cc1N1CCN(C(=O)c2cccn3c(=O)c4cc(Cl)ccc4nc23)CC1
inactive

Enter recorded Potency with Luciferin 4-monooxygenase (Photinus pyralis) (UniProt P08659) for COc1ccccc1NC(=O)c1ccc(N2CC3CC(C2)c2cccc(=O)n2C3)c(NC(=O)c2cccnc2)c1 (configuration not stated) here.
inactive

Look up Luciferin 4-monooxygenase (Photinus pyralis) (UniProt P08659) data: Potency of CC(C)COc1ccc(C(=O)OCC(=O)NCCC2=CCCCC2)cc1 , then report it.
inactive

Give Potency for this entry on Luciferin 4-monooxygenase (Photinus pyralis) (UniProt P08659): CC(C)c1ccc(/C=C/C(=O)NNC(=O)c2cccnc2)cc1
12 µM (active)

Provide Luciferin 4-monooxygenase (Photinus pyralis) (UniProt P08659) Potency reading for O=C(/C=C/c1ccc(F)cc1)NCCNC(=O)/C=C/c1ccc(F)cc1 .
inactive

Provide Potency, recorded with Luciferin 4-monooxygenase (Photinus pyralis) (UniProt P08659), of Cc1c(NC(=O)c2cccnc2)c(=O)n(-c2ccccc2)n1C
inactive

Answer with Potency of O=C(Nc1ccc(Oc2ccccc2)cc1)C1CCN(S(=O)(=O)c2ccc(Cl)cc2)CC1 measured for Luciferin 4-monooxygenase (Photinus pyralis) (UniProt P08659).
inactive

System Luciferin 4-monooxygenase (Photinus pyralis) (UniProt P08659). Read-out Potency. Item CCCCn1c(N)c(N(CCC(C)C)C(=O)COC(=O)c2ccc(CC)cc2)c(=O)[nH]c1=O . Report value.
inactive

# lookup: Luciferin 4-monooxygenase (Photinus pyralis) (UniProt P08659) Potency, key = O=C(/C=C/c1ccc(Cl)cc1)NCCCn1ccnc1
inactive

Supply Potency measured with Luciferin 4-monooxygenase (Photinus pyralis) (UniProt P08659) for O=C(NCCC1=CCCCC1)c1ccc(-n2cncn2)cc1 .
15.1 µM (active)

====

target: Luciferin 4-monooxygenase (Photinus pyralis); test: qHTS profiling assay for firefly luciferase inhibitor/activator using purifed enzyme and Km concentrations of substrates (counterscreen for miR-21 project); settings: purified FLuc, luminescence inhibition; series mostly up to 57.5 µM; note: nearly all actives have a fitted effect of over 55% in size
Out of some 360,000 compounds screened, about 25,000 (6.9%) were called active. Not shown: some 9% with an inconclusive outcome. Calls come from the whole dose curve; as a rule, active = well fitted inhibition curve with a large enough effect; inconclusive = small, poorly fitted or top-dose-only effect; inactive = flat fitted curve, though single readings scatter. This is one part of a sample in which actives are shown more often than they occur.
Parameter call: string, one of YES for active, NO for inactive

Test call, this compound: COc1cc(C)ccc1OCCSc1nc2ccc(NC(=O)c3ccc(C)cc3)cc2s1
NO

Please state the recorded outcome for this compound: CCCCNC(=O)c1ccc2c(c1)NC(=O)C(C(C)C)N2 (stereo unspecified)
NO

Given O=C(O)c1ccc(N/N=C/c2ccc3ncccc3c2)cc1 , state the outcome it received in this test.
YES

Which outcome was entered for the compound CS(=O)(=O)N1CCN(C(=O)c2cc3ccccc3oc2=O)CC1 in this test?
NO

Hi, do you know how O=c1oc2ccccc2cc1-c1cn(-c2ccccc2)c(=S)[nH]1 came out in this test?
YES

Any idea what this test logged for COCCN(C(=O)CCC(=O)Nc1nccs1)C(C(=O)NCCC(C)C)c1ccc(F)cc1 (stereo unspecified) ?
NO

Which outcome did this test record for the compound Cc1ccc2cc(/C=N/NC(=O)[C@@H]3CCCN3)c(Cl)nc2c1 ?
NO

Which outcome was assigned to S=c1[nH]c(-c2cccs2)cn1-c1ccccc1 in this test?
NO

Which outcome did this test record for the compound COC(=O)C1=C(C)NC(=S)NC1c1ccc(OCC(=O)N2CC(C)OC(C)C2)c(OC)c1 (stereo unspecified) ?
NO

For COc1ccc(-c2nnc(SCC(=O)Nc3ccccc3C)o2)cc1OC , which call appears in the assay record?
NO

Write down the call the test reported for this compound. Item: Cc1ccc(S(=O)(=O)Nc2ccc3ncccc3c2)cc1
NO

====

molecular target: Luciferin 4-monooxygenase (Photinus pyralis); test: qHTS profiling assay for firefly luciferase inhibitor/activator using purifed enzyme and Km concentrations of substrates (counterscreen for miR-21 project); conditions: purified FLuc, luminescence inhibition; series mostly up to 57.5 µM; note: nearly all actives have a fitted effect of over 55% in size
Hit rate of the full screen: of about 360,000 compounds, about 25,000 (6.9%) were called active. Not shown: some 9% with an inconclusive outcome. Calls follow the shape of the dose curve; as a rule, active = well fitted inhibition curve with a large enough effect; inconclusive = small, poorly fitted or top-dose-only effect; inactive = flat fitted curve, though single readings scatter. Many of the other results were omitted from the sample, so actives are more common in it than they were.
Thanks in advance; please answer with one of these: active, inactive

Test call, this molecule: O=C(CNC(=O)c1cccnc1)N/N=C/c1cccnc1
inactive

Please let me know the test result on file for Cc1c(CNC2CCCCC2)c(C(=O)O)c(C)n1Cc1cccc(Cl)c1 .
inactive

Just curious, what result did O=C(Cc1cccs1)Nc1nnc(SCc2ccc(F)cc2)s1 get here?
inactive

What is the recorded call for this molecule in the test? COc1cccc(N(CC(=O)Nc2cccc(F)c2)S(C)(=O)=O)c1
inactive

Could you please tell me the result logged for Cc1nc2ccc(S(=O)(=O)N(C)CC(=O)NC(C)c3ccccc3)cc2s1 (stereo unspecified) in this assay?
inactive

# lookup: test call for Cc1ccc(-c2nn3c(=O)cc(CN4CCN(S(=O)(=O)c5ccc(Cl)cc5)CC4)nc3s2)cc1
inactive

Hello, I am checking results. What call was entered for COc1ccc(CC2c3cc(OC)c(OC)cc3CC[N+]2(C)CCC(=O)OCCCCCOC(=O)CC[N+]2(C)CCc3cc(OC)c(OC)cc3C2Cc2ccc(OC)c(OC)c2)cc1OC (stereo unspecified) ?
inactive

Status in this test for Cc1ccccc1CNC(=O)C(=O)NCC(c1cccs1)S(=O)(=O)c1cccs1 (stereo unspecified) ?
inactive

Which result was noted for this molecule in the test: Cc1cccc(N(CC(=O)Nc2ccc(-c3nc4ccc(C)cc4s3)cc2)S(C)(=O)=O)c1
active

// param item: COC(=O)c1cc(NC(=O)C2C3C=CC(C3)C2C(=O)O)cc(C(=O)OC)c1 (stereo unspecified) ; yields the recorded call
inactive

Entry CCOC(=O)c1ccc(NC(=O)c2ncn(-c3ccccc3)n2)cc1 : call = ?
inactive

How was Cc1nc(SCC(=O)Nc2ccc(C(=O)O)cc2)n[nH]1 classified in this test?
inactive

Record request — test call for COC(=O)c1ccc2c(c1)N(CC(=O)Nc1ccc(C)c(C)c1)C(=O)c1ccccc1S2
inactive

Per the assay record, what outcome was assigned to CC(C)(C)NC(=O)CSc1nnc(NC(=O)CCc2ccccc2)s1 ?
inactive

Dear all, I need the recorded test outcome for CC(=O)c1ccc(NC(=O)CSc2nnc(NC(=O)Nc3ccccc3)s2)cc1 , thank you.
active

For CC(C)COC(=O)c1ccc(NC(=O)C2C3C=CC(C3)C2C(=O)O)cc1 (stereo unspecified) , which call appears in the assay record?
active

I would be grateful if you could indicate the recorded call for CN(C)S(=O)(=O)c1ccc(C(=O)N(Cc2cccnc2)c2nc3c(F)cc(F)cc3s2)cc1 .
inactive

What call does the record list for O=C(CNC(=O)c1cccnc1)N/N=C/c1cc(Br)c(O)c(Br)c1 ?
inactive

What classification did COc1cc(NC(=O)CN(C)S(=O)(=O)c2ccc3nc(C)sc3c2)cc(OC)c1 end up with in this test?
inactive

Entry O=C(CSc1nnc(Nc2ccccc2)s1)Nc1cccnc1Cl : call = ?
active

What outcome does the record of this test show for CC(C)c1ccc(Nc2ncccc2C#N)cc1 ?
active
